FYI, the data here is from ChEMBL document CHEMBL5032508.

# TARGET SYSTEM: UniProtKB P49789
# Sequence (P49789 whole entry): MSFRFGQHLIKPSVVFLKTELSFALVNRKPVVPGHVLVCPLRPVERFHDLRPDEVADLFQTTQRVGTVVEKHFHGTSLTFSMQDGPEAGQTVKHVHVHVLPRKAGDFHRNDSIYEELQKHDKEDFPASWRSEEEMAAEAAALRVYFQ
# EXPERIMENTAL DETAILS: Inhibition of recombinant human FHIT assessed as reduction in AP3Aase activity measured after 45 mins by HPLC analysis
This listing pairs molecules with measured IC50.
METRIC NAME: IC50 (nM)

INSERT INTO results (molecule, metric_name, value_reported) VALUES
  ('CC1(C)CC(=O)C2=C(C1)NC1=C(C(=O)c3ccccc31)C2c1ccc(Br)cc1 (stereo not drawn)', 'IC50', 23000),
  ('O=C(COc1ccc2c3c(c(=O)oc2c1Br)CCCC3)NO', 'IC50', 60),
  ('Cc1c(OCC(=O)NO)ccc2c3c(c(=O)oc12)CCCC3', 'IC50', 140);
